Hello, the source for this data is the supplement of paper PMC12420376, in case you need it.

Test system: OVCAR8
Experiment: drug sensitivity score (DSS2) on cancer cell count; higher = more sensitive; extreme values may be limits of the assay
Details: co-cultured fibroblast: BJHTERT; 72 h
READOUT NAME: drug sensitivity score (DSS)
Form entry: value (DSS) — number only.

// field: drug sensitivity score; key: CCc1nc(C(N)=O)c(Nc2ccc(N3CCC(N4CCN(C)CC4)CC3)c(OC)c2)nc1NC1CCOCC1 [Gilteritinib] ; value = 1.5

// field: drug sensitivity score; key: CC(C)(C)C[C@@H]1N[C@@H](C(=O)N[C@H]2CC[C@H](O)CC2)[C@H](c2cccc(Cl)c2F)[C@]12C(=O)Nc1cc(Cl)ccc12 ; value = 2.5

// field: drug sensitivity score; key: CN1CCN(C2CCN(C(=O)Nc3cc(Oc4ccc(NC(=O)C5(C(=O)Nc6ccc(F)cc6)CC5)c(F)c4)ccn3)CC2)CC1 [Golvatinib] ; value = 0

// field: drug sensitivity score; key: Cc1nc(NC(=O)N2CCC[C@H]2C(N)=O)sc1-c1ccnc(C(C)(C)C(F)(F)F)c1 [Alpelisib] ; value = 0

// field: drug sensitivity score; key: Cn1ncc(Cl)c1-c1cc(C(=O)N[C@H](CN)Cc2cccc(F)c2)sc1Cl [Afuresertib] ; value = 0.3

// field: drug sensitivity score; key: CC(C)(O)CNc1nc(Nc2ccnc(C(F)(F)F)c2)nc(-c2cccc(C(F)(F)F)n2)n1 [Enasidenib] ; value = 0

// field: drug sensitivity score; key: CO[C@H]1CC[C@H](N2C(=O)CNc3ncc(-c4ccc(C(C)(C)O)nc4)nc32)CC1 [CC-223] ; value = 5

====

Test system: KURAMOCHI
Assay: drug sensitivity score (DSS2) on cancer cell count; higher = more sensitive; extreme values may be limits of the assay
Conditions: co-cultured fibroblast: BJHTERT; 72 h
Can you tell me drug sensitivity score for the items I'm about to list?
Please state the number and follow it with the unit.

// field: drug sensitivity score; key: COc1cc([C@@H]2c3cc4c(cc3[C@@H](O[C@@H]3O[C@@H]5CO[C@@H](c6cccs6)O[C@H]5[C@H](O)[C@H]3O)[C@H]3COC(=O)[C@H]23)OCO4)cc(OC)c1O [Teniposide] ; value = 0 DSS

// field: drug sensitivity score; key: Cc1cc(Nc2ncnc3ccc(NC4=NC(C)(C)CO4)cc23)ccc1Oc1ccn2ncnc2c1 ; value = 2.9 DSS

// field: drug sensitivity score; key: CC(C)[C@@H](CS(=O)(=O)C(C)C)N1C(=O)[C@@](C)(CC(=O)O)C[C@H](c2cccc(Cl)c2)[C@H]1c1ccc(Cl)cc1 ; value = 0.2 DSS

====

Test system: OVCAR8
Experiment: drug sensitivity score (DSS2) on cancer cell count; higher = more sensitive; extreme values may be limits of the assay
Conditions: co-cultured fibroblast: WI38; 72 h
READOUT NAME: drug sensitivity score (DSS)
Form entry: value (DSS) — number only.

// field: drug sensitivity score; key: COCCNCc1ccc(-c2cc3nccc(Oc4ccc(NC(=S)NC(=O)Cc5ccc(F)cc5)cc4F)c3s2)nc1 ; value = 3.5

// field: drug sensitivity score; key: Nc1nc(Cl)nc2c1ncn2[C@H]1C[C@H](O)[C@@H](CO)O1 ; value = 20.7

// field: drug sensitivity score; key: Cc1ccc(C(=O)Nc2ccc(Oc3cc4cnn(C)c4cc3-c3cn[nH]c3)c(F)c2)c(=O)n1-c1ccc(F)cc1 ; value = 0

// field: drug sensitivity score; key: CS(=O)(=O)N1CCN(Cc2cc3nc(-c4cccc5[nH]ncc45)nc(N4CCOCC4)c3s2)CC1 ; value = 5.4

// field: drug sensitivity score; key: COc1cccc2c1C(=O)c1c(O)c3c(c(O)c1C2=O)C[C@@](O)(C(=O)CO)C[C@@H]3O[C@H]1C[C@H](N)[C@@H](O)[C@H](C)O1 [Epirubicin] ; value = 9

// field: drug sensitivity score; key: Nc1nc(OCc2cc(Br)cs2)c2[nH]cnc2n1 ; value = 0.8

// field: drug sensitivity score; key: CC(=O)N(O)CCCCCNC(=O)CCC(=O)N(O)CCCCCNC(=O)CCC(=O)N(O)CCCCCN ; value = 3.5

// field: drug sensitivity score; key: CC(C)(O)CNc1nc(Nc2ccnc(C(F)(F)F)c2)nc(-c2cccc(C(F)(F)F)n2)n1 ; value = 0

====

Test system: KURAMOCHI
Assay: drug sensitivity score (DSS2) on cancer cell count; higher = more sensitive; extreme values may be limits of the assay
Conditions: co-cultured fibroblast: BJHTERT; 72 h
Can you tell me drug sensitivity score for the items I'm about to list?
Form entry: value (DSS) — number only.

// field: drug sensitivity score; key: Cc1sc2c(c1C)C(c1ccc(Cl)cc1)=N[C@@H](CC(=O)Nc1ccc(OCCOCCOCCOCCNc3cccc4c3C(=O)N(C3CCC(=O)NC3=O)C4=O)cc1)c1nnc(C)n1-2 (stereo partly drawn) ; value = 6.9

// field: drug sensitivity score; key: CCN1CCN(Cc2ccc(Nc3ncc(F)c(-c4cc(F)c5nc(C)n(C(C)C)c5c4)n3)nc2)CC1 ; value = 5.5

// field: drug sensitivity score; key: C=CC(=O)Nc1cccc(Nc2nc(Nc3ccc(N4CCN(C(C)=O)CC4)cc3OC)ncc2C(F)(F)F)c1 ; value = 5.8

// field: drug sensitivity score; key: CNc1nc(Nc2cn(C(C)(C)C#N)nc2C)ncc1C(F)(F)F ; value = 0

// field: drug sensitivity score; key: CN(C)c1cc2c(cc1Sc1nc3c(N)nccc3n1CCNCC(C)(C)C)OCO2 ; value = 12

// field: drug sensitivity score; key: Cn1ncc(Cl)c1-c1cc(C(=O)N[C@H](CN)Cc2ccc(F)c(F)c2)oc1Cl ; value = 0.5

// field: drug sensitivity score; key: COc1ccc(S(=O)(=O)Nc2cccnc2Nc2ccc(O)cc2)cc1 ; value = 14.5

// field: drug sensitivity score; key: CC[C@H](Nc1ncnc2[nH]cnc12)c1nc2cccc(F)c2c(=O)n1-c1ccccc1 ; value = 10.9

====

System: KURAMOCHI
Assay: drug sensitivity score (DSS2) on cancer cell count; higher = more sensitive; extreme values may be limits of the assay
Settings: co-cultured fibroblast: BJHTERT; 72 h
READOUT NAME: drug sensitivity score (DSS)
Form entry: value (DSS) — number only.

// field: drug sensitivity score; key: CS(=O)(=O)c1ccc(-c2cnc(N)c(C(=O)Nc3ccccc3)n2)cc1 ; value = 0

// field: drug sensitivity score; key: C=CCN(/C=C1/C(=O)O[C@H](COC)[C@@]2(C)C1=C(O)C(=O)C1=C2[C@H](OC(C)=O)C[C@]2(C)C(=O)CC[C@@H]12)CC=C ; value = 0

// field: drug sensitivity score; key: CCN1CCN(c2ccc(Nc3cc(N(C)C(=O)Nc4c(Cl)c(OC)cc(OC)c4Cl)ncn3)cc2)CC1 ; value = 0

// field: drug sensitivity score; key: COC(=O)c1ccc([C@H]2c3[nH]c4ccccc4c3C[C@H](C(=O)OC)N2C(=O)CCl)cc1 ; value = 0

// field: drug sensitivity score; key: C/C(=C\c1csc(C)n1)[C@@H]1C[C@@H]2O[C@]2(C)CCC[C@H](C)[C@H](O)[C@@H](C)C(=O)C(C)(C)[C@@H](O)CC(=O)N1 [Ixabepilone] ; value = 4.9

// field: drug sensitivity score; key: COc1cccc2c1C(=O)c1c(O)c3c(c(O)c1C2=O)C[C@@](O)(/C(CO)=N/NC(=O)CCCCCN1C(=O)C=CC1=O)C[C@@H]3O[C@H]1C[C@H](N)[C@H](O)[C@H](C)O1 ; value = 13.3

====

Tested on: KURAMOCHI
Test: drug sensitivity score (DSS2) on cancer cell count; higher = more sensitive; extreme values may be limits of the assay
Conditions: co-cultured fibroblast: BJHTERT; 72 h
READOUT NAME: drug sensitivity score (DSS)
Form entry: value (DSS) — number only.

// field: drug sensitivity score; key: Oc1ccc2c(c1)CC[C@H](c1ccccc1)[C@@H]2c1ccc(OCCN2CCCC2)cc1 ; value = 0

// field: drug sensitivity score; key: O=C1Cc2cc(C(=O)NC3C[C@H]4CC[C@@H](C3)N4S(=O)(=O)CC3CCN(CCCC(F)(F)F)CC3)c(Cl)cc2N1 (some centres undefined) ; value = 0

// field: drug sensitivity score; key: Cc1cn(-c2cc(NC(=O)c3ccc(C)c(Nc4nccc(-c5cccnc5)n4)c3)cc(C(F)(F)F)c2)cn1 ; value = 0

// field: drug sensitivity score; key: Cn1nccc1Nc1nccc(-c2ccn([C@H](CO)c3ccc(Cl)c(F)c3)c(=O)c2)n1 ; value = 3.6

// field: drug sensitivity score; key: CN(C)C(=O)c1cc2cnc(Nc3ccc(N4CCNCC4)cn3)nc2n1C1CCCC1 ; value = 0

// field: drug sensitivity score; key: CN(C)C(=N)NC(=N)N ; value = 0

// field: drug sensitivity score; key: CCN(CC)CCNC(=O)c1c(C)[nH]c(/C=C2\C(=O)Nc3ccc(-c4csc(-c5ccccc5)n4)cc32)c1C ; value = 8.1

// field: drug sensitivity score; key: CN(C)C/C=C/C(=O)Nc1cc2c(Nc3ccc(F)c(Cl)c3)ncnc2cc1O[C@H]1CCOC1 ; value = 5.3

// field: drug sensitivity score; key: O=C(Nc1cnn2ccc(N3CCC[C@@H]3c3cc(F)ccc3F)nc12)N1CC[C@H](O)C1 ; value = 0

// field: drug sensitivity score; key: Clc1ccccc1C(c1ccccc1)(c1ccccc1)n1cccn1 ; value = 0

// field: drug sensitivity score; key: COc1cccc2c1C(=O)c1c(O)c3c(c(O)c1C2=O)C[C@@](O)(C(C)=O)C[C@@H]3O[C@H]1C[C@H](N)[C@H](O)[C@H](C)O1 ; value = 11.9

// field: drug sensitivity score; key: COc1cc2/c(=N/c3ccc(Br)cc3F)nc[nH]c2cc1OCC1CCN(C)CC1 ; value = 0

// field: drug sensitivity score; key: C[C@H]1O[C@@H](O[C@H]2[C@@H](O)C[C@H](O[C@H]3[C@@H](O)C[C@H](O[C@H]4CC[C@@]5(C)[C@H](CC[C@@H]6[C@@H]5C[C@@H](O)[C@]5(C)[C@@H](C7=CC(=O)OC7)CC[C@]65O)C4)O[C@@H]3C)O[C@@H]2C)C[C@H](O)[C@@H]1O ; value = 8.6

// field: drug sensitivity score; key: O[C@H](C[C@H]1c2c(F)cccc2-c2cncn21)[C@H]1CC[C@H](O)CC1 ; value = 1.3

// field: drug sensitivity score; key: O=C(CCNC(=O)c1ccc(OC(F)(F)F)cc1)N[C@@H]1CCCc2ccccc21 ; value = 3.4

// field: drug sensitivity score; key: O=c1[nH]c(=O)n([C@H]2C[C@H](O)[C@@H](CO)O2)cc1C(F)(F)F ; value = 5.4

// field: drug sensitivity score; key: CCCOc1ccn2c(C(C)=O)cc(-c3ccccc3S(C)(=O)=O)c2c1 ; value = 0

// field: drug sensitivity score; key: C=CC(=O)Nc1cc(Nc2nccc(-c3cn(C)c4ccccc34)n2)c(OC)cc1N(C)CCN(C)C ; value = 10.7

// field: drug sensitivity score; key: Cc1ccc(=O)n(-c2ccccc2)c1 ; value = 1.8

// field: drug sensitivity score; key: CO[C@H]1C[C@@H]2CC[C@@H](C)[C@@](O)(O2)C(=O)C(=O)N2CCCC[C@H]2C(=O)O[C@H]([C@H](C)C[C@@H]2CC[C@@H](O)[C@H](OC)C2)CC(=O)[C@H](C)/C=C(\C)[C@@H](O)[C@@H](OC)C(=O)[C@H](C)C[C@H](C)/C=C/C=C/C=C/1C ; value = 4.2

// field: drug sensitivity score; key: C[C@@H]1CN(CC(=O)Nc2ccc3c(c2)Cc2cccc(-c4cc(=O)cc(N5CCOCC5)o4)c2S3)C[C@H](C)O1 ; value = 3.2

// field: drug sensitivity score; key: O=C(Nc1ccc(OC(F)(F)Cl)cc1)c1cnc(N2CC[C@@H](O)C2)c(-c2cc[nH]n2)c1 ; value = 0

// field: drug sensitivity score; key: CC(=O)OC[C@H]1O[C@@H]([S-])[C@H](OC(C)=O)[C@@H](OC(C)=O)[C@@H]1OC(C)=O.CCP(CC)CC.[Au+] ; value = 9.3

// field: drug sensitivity score; key: C=CCn1c(=O)c2cnc(Nc3ccc(N4CCN(C)CC4)cc3)nc2n1-c1cccc(C(C)(C)O)n1 ; value = 15.3

// field: drug sensitivity score; key: Cn1cc(C2=C(c3cn(C4CCN(Cc5ccccn5)CC4)c4ccccc34)C(=O)NC2=O)c2ccccc21 ; value = 0

// field: drug sensitivity score; key: CC(C)(C)c1cc(NC(=O)Nc2ccc(-c3cn4c(n3)sc3cc(OCCN5CCOCC5)ccc34)cc2)no1 ; value = 0

// field: drug sensitivity score; key: C=CC(=O)Nc1cccc(Oc2nc(Nc3ccc(N4CCN(C)CC4)cc3)nc3ccsc23)c1 ; value = 2.1

// field: drug sensitivity score; key: COc1cc2ncnc(Nc3ccc(F)c(Cl)c3)c2cc1NC(=O)/C=C/CN1CCCCC1 ; value = 7

// field: drug sensitivity score; key: CNC(=O)c1ccc(N2C(=S)N(c3ccc(C#N)c(C(F)(F)F)c3)C(=O)C2(C)C)cc1F [Enzalutamide] ; value = 0
